# system.tested: human TRPV3 (Homo sapiens, UniProt Q8NET8)
# Construct: expressed in transfected cells
# Sequence (Q8NET8 whole entry): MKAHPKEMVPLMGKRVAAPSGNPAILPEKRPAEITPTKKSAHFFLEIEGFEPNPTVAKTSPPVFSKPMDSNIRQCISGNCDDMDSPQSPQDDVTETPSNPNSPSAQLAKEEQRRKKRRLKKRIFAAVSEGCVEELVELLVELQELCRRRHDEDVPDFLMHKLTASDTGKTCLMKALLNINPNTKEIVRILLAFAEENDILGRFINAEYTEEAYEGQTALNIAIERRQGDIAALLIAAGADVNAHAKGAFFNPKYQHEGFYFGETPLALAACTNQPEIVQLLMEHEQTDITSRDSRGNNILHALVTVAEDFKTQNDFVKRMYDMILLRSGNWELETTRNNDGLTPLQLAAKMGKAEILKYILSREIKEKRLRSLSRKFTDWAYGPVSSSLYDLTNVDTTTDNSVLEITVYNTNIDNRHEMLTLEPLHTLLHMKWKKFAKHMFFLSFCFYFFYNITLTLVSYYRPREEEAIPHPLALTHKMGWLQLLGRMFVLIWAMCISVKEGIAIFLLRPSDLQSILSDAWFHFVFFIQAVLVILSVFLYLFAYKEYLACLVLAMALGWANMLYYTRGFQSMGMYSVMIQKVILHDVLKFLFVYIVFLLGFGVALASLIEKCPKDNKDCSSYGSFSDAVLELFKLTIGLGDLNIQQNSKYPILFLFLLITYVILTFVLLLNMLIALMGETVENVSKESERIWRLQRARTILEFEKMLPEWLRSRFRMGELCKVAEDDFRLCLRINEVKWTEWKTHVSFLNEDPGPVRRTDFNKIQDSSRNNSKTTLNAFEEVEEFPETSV
# assay: In vitro antagonism of recombinant human TRPV3 activation (FLIPR Tetra calcium assay, 2-APB as agonist)
# Assay type: cell-based
# study.conditions: HEK293 cells stably expressing human TRPV3; 2-APB 80 μM; range class; read-out: IC50 (reported range)

[
  {
    "compound": "N[C@H]1CCC[C@@H]1[C@H](O)C1(c2ccc(Cl)cc2)CCC1 [Example 225]",
    "IC50": "1.1 to 5 µM"
  },
  {
    "compound": "OC(C1CCc2cccnc21)C1(c2ccc(Cl)c(Cl)c2)CCC1 (stereo not shown) [Example 168]",
    "IC50": "5.1 to 20 µM"
  },
  {
    "compound": "CN(C)N=C1CC(c2ccc(OC(F)(F)F)cc2)([C@H](O)c2ccccn2)C1 (stereo partly shown) [Example 267]",
    "IC50": "1.1 to 5 µM"
  },
  {
    "compound": "OC(c1ccccn1)C1(C2CCC(C(F)(F)F)CC2)CCC1 (stereo not shown) [Example 280]",
    "IC50": "1.1 to 5 µM"
  },
  {
    "compound": "Cc1ccccc1CC1(C(O)c2ccccn2)CCC1 (stereo not shown) [Example 253]",
    "IC50": "1.1 to 5 µM"
  },
  {
    "compound": "O[C@H](c1ccccn1)C1(c2ccc(Cl)c(Cl)c2)CCC1 [Example 26]",
    "IC50": "0.05 to 0.5 µM"
  },
  {
    "compound": "OC(c1ccccn1)C1(c2cccc(Cl)c2)COC1 (stereo not shown) [Example 86]",
    "IC50": "1.1 to 5 µM"
  },
  {
    "compound": "OC(c1ccccn1)C1(c2ccc(C(F)(F)F)cc2)CCOC1 (stereo not shown) [Example 78]",
    "IC50": "1.1 to 5 µM"
  },
  {
    "compound": "OC(c1ccccn1)C1(C2CCCOC2)CCC1 (stereo not shown) [Example 281]",
    "IC50": "5.1 to 20 µM"
  },
  {
    "compound": "O=C1CC(c2ccc(C(F)(F)F)cc2)(C(O)c2ccccn2)C1 (stereo not shown) [Example 160]",
    "IC50": "5.1 to 20 µM"
  }
]
